Reported pEC50 is given for each of the following compounds.
# assay_system: F508delCFTR (Homo sapiens, UniProt P13569, DEL508-508)
# Construct: expressed in transfected cells; host or cells: CFBE41o- human lung-derived epithelial cells (CFBE4lo-F508delCFTR-HRP), doxycycline-inducible
# Sequence (P13569 with tags, fused parts or gaps DEL508-508): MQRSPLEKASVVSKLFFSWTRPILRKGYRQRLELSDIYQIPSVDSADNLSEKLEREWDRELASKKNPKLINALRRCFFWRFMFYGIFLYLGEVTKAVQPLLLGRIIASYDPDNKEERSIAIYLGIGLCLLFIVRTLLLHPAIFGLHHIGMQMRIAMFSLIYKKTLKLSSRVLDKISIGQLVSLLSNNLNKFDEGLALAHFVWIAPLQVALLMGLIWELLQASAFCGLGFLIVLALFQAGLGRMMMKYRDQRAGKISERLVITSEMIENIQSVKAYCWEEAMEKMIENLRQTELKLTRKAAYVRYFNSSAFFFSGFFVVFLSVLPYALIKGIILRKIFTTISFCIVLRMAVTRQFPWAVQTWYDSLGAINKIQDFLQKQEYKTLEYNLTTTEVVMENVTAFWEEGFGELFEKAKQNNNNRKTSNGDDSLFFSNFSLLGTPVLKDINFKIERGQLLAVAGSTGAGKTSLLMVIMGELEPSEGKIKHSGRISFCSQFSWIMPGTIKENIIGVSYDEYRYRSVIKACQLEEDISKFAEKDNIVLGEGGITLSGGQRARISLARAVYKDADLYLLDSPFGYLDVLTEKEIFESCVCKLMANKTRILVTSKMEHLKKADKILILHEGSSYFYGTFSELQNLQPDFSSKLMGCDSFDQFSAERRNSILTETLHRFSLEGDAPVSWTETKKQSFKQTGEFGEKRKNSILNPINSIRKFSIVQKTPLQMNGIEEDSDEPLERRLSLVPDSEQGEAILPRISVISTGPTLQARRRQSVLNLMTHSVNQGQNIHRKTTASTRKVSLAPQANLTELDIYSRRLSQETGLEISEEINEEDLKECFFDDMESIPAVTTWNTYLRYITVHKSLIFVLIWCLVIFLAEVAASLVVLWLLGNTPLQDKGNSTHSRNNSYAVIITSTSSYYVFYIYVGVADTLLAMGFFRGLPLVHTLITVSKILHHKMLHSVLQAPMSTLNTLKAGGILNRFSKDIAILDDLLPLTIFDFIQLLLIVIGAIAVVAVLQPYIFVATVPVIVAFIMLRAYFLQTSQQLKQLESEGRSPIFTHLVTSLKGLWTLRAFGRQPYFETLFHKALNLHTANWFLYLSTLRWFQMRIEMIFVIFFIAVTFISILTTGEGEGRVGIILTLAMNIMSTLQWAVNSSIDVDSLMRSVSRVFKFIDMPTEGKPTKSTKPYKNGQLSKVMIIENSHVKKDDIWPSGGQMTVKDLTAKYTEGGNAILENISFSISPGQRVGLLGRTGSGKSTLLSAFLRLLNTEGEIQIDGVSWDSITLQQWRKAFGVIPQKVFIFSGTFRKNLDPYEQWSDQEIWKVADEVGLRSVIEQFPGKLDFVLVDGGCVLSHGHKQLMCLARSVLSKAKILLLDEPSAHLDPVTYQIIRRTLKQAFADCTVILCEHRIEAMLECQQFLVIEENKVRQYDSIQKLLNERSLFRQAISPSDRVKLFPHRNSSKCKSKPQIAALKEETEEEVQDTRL
# assay_name: Cell Surface Expression-Horse Radish Peroxidase (CSE-HRP) Assay
# Format: cell-based
# run_parameters: CSE-HRP; with co-corrector (2 μM of 3-[(2R,4R)-4-({[1-(2,2-difluoro-1,3-benzodioxol-5-yl)cyclopropyl]carbonyl}amino)-7-methoxy-3,4-dihydro-2H-chromen-2-yl]benzoic acid); read-out: EC50 (with co-corrector)
pEC50: −log10 of the molar value.

Examples from the recorded data:
// pEC50 lookup, key: "COc1ccc(Br)cc1CN[C@H]1[C@H](C(C)(C)C)[C@@H](C(=O)O)N(C(=O)OC(C)C)[C@H]1c1ccccc1"
5.00 to 6.00

// pEC50 lookup, key: "COc1cc(C(F)(F)F)ccc1CN[C@H]1[C@H](C(C)(C)C)[C@@H](C(=O)O)N(C(=O)[C@@H](OC)c2ccccc2)[C@H]1c1ccccc1"
5.00 to 6.00

// pEC50 lookup, key: "COc1ccc(C(C)(C)C)cc1CN[C@H]1[C@H](C(C)(C)C)[C@@H](C(=O)O)N(C(=O)Cc2cccs2)[C@H]1c1ccccc1"
> 6.00

// pEC50 lookup, key: COc1ccc(C(C)(C)C)cc1CN[C@H]1[C@H](C(C)(C)C)[C@@H](C(=O)O)N(C(=O)C2COc3ccccc3C2)[C@H]1c1ccccc1 (stereo partly drawn)
> 6.00

// pEC50 lookup, key: COc1ccc(C(F)(F)F)cc1CN[C@H]1[C@H](C(C)(C)C)[C@@H](C(=O)O)N(C(=O)[C@@H]2OCC[C@@H]2C)[C@H]1c1ccccc1 (relative stereo)
5.00 to 6.00

// pEC50 lookup, key: "COc1ccc(C2(C)CCC2)cc1CN[C@H]1[C@H](C(C)(C)C)[C@@H](C(=O)O)N(C(=O)[C@@H]2CCCO2)[C@H]1c1cccnc1N(C)C"
5.00 to 6.00

// pEC50 lookup, key: "COc1cc(C(F)(F)F)ccc1CN[C@H]1[C@H](C(C)(C)C)[C@@H](C(=O)O)N(C(=O)[C@@H]2CCCCO2)[C@H]1c1cccc2c1OCC2"
5.00 to 6.00

// pEC50 lookup, key: CCOc1ccc(Cl)cc1CN[C@@H]1[C@@H](C(C)(C)C)[C@H](C(=O)O)N(C(=O)C2CCCCC2)[C@@H]1c1ccccc1 (racemic)
5.00 to 6.00

// pEC50 lookup, key: "COc1cc(Cl)ccc1CN[C@H]1[C@H](C(C)(C)C)[C@@H](C(=O)O)N(C(=O)C2CCCCC2)[C@H]1c1ccccc1"
5.00 to 6.00

// pEC50 lookup, key: "COc1cc(C(F)(F)F)ccc1CN[C@H]1[C@H](C(C)(C)C)[C@@H](C(=O)O)N(C(=O)[C@@H]2CCCCO2)[C@H]1c1ccccc1Br"
> 6.00

Others:
// pEC50 lookup, key: "COc1cc(C(C)(C)C)ccc1CN[C@H]1[C@H](C(C)(C)C)[C@@H](C(=O)O)N(C(=O)C2CCCCC2)[C@H]1c1ccccc1OC(F)F"
> 6.00

// pEC50 lookup, key: "COc1cc(C(F)(F)F)ccc1CN[C@H]1[C@H](C(C)(C)C)[C@@H](C(=O)O)N(C(=O)[C@H]2CCCCO2)[C@H]1c1ccccc1"
5.00 to 6.00
